system: UACC-257; assay: NCI tumour cell line growth inhibition, 48 h
The source made the active and inactive calls. Cut-off read from the data, not from the text of the source: active = GI50 up to about 1.1 µM and inactive = higher.
# valid calls are T for active, F for inactive; nothing else

Check out these entries, answers already filled in.
smiles-notation	class-name
C/C(=N\Nc1nc2ccccc2n1C)c1cc2ccccc2cn1	T
O=C1N[C@@H](c2c[nH]c3cc(Br)ccc23)C(=O)N[C@H]1c1c[nH]c2cc(Br)ccc12	F
CCOC(=O)COc1ccc(OC)c2c1C(=O)CCC2	F
COc1cc(CNc2cnc3ccc(N)cc3n2)cc(OC)c1OC	F

Prompt: Just curious, what result did O=[N+]([O-])c1c(O)c2nonc2c2nn(-c3ccccc3)nc12 get here?
Completion: F

====

Reported GI50 values follow for various molecules
test system: CAKI-1; experiment: NCI tumour cell line growth inhibition, 48 h
Active and inactive are the calls of the source. Rule as the data show it: active = GI50 up to about 1.1 µM and inactive = higher.

Solved entries:
molecule	GI50
C[C@H](CCC(=O)O)[C@H]1CC[C@H]2[C@@H]3CC[C@@H]4C[C@H](O)CC[C@]4(C)[C@H]3C[C@H](O)[C@]12C [DEOXYCHOLIC ACID]	69.5 µM (inactive)
O=C1C[C@@H](Sc2ccccc2)C2(OCCO2)[C@H]2ON3CCC[C@@H]3[C@@H]12	4.42 µM (inactive)
C/C(=N\NC1=NCCN1)c1cn(C2=NCCN2)nc1C	> 100 µM (inactive)
CCOC(=O)NC(=O)c1cn(C(CC)COC(=O)NCCCCCCNC(=O)OCC(CC)n2cc(C(=O)NC(=O)OCC)c(=O)[nH]c2=O)c(=O)[nH]c1=O (centres undefined)	> 100 µM (inactive)
CC1=C(C(=O)CC(=O)C(=O)Nc2ccc(Cl)cc2C)Sc2ccccc2N1	> 100 µM (inactive)
Cc1ccc2c(c1)SSSSS2	21 µM (inactive)

Prompt: Using the record for CCOc1ccc(/N=C/C=C(\Cl)c2ccc3ccccc3c2)cc1 , report its GI50.
Completion: 18.8 µM (inactive)

Prompt: Using the record for CC(=O)Nc1ccccc1S(=O)(=O)c1ccccc1 , report its GI50.
Completion: > 100 µM (inactive)

Prompt: Using the record for O=S(=O)(c1cnccc1N1CCN(CCO)CC1)N1CCCC1 , report its GI50.
Completion: > 100 µM (inactive)

====

Reported GI50 values follow for various compounds
tested on: RPMI-8226; assay: NCI tumour cell line growth inhibition, 48 h
The source made the active and inactive calls. Rule as the data show it: active = GI50 up to about 1.1 µM and inactive = higher. Where a SMILES comes first, the peptide text is derived from it. [ ]: non-standard residue; d: D form. The star is where a group is joined. ξ: configuration not given here. Propanoyl(3-(4-MeO-Ph)) = COc1ccc(CCC(=O)*)cc1; Thr(3ξ) = CC(O)[C@H](N)C(=O)O; dNMeL = CN[C@H](CC(C)C)C(=O)O; OBn = c1ccc(CO*)cc1; ξLac = CC(O)C(=O)O

Solved entries:
compound	GI50
O=C(CCN1CCCCC1)C(=Cc1ccccc1)C(=O)CCN1CCCCC1	20.8 µM (inactive)
O=C1CSC(c2cc3cc(Br)ccc3nc2Cl)N1c1ccc(F)c(Cl)c1 (stereo unspecified)	18.1 µM (inactive)
O=c1[nH]nc(NCCc2ccccc2)c2nnn(Cc3ccccc3)c12	> 100 µM (inactive)
CC(CO)(CO)/N=C/c1cc(I)cc(I)c1O	21.3 µM (inactive)

Prompt: Using the record for Cc1cc(NS(=O)(=O)c2ccc(NC(=O)c3ccc4nc5ccccc5c(Nc5ccc(S(=O)(=O)Nc6cc(C)on6)cc5)c4c3)cc2)no1 , report its GI50.
Completion: > 50 µM (inactive)

Prompt: Using the record for COC(=O)/C=C\n1ncc(=O)[nH]c1=O , report its GI50.
Completion: > 100 µM (inactive)

Prompt: Using the record for C[s+]1c2ccccc2c2ccccc21 , report its GI50.
Completion: > 100 µM (inactive)

Prompt: Using the record for COc1ccc(N2C(=O)CC(c3c[nH]c4ccccc34)C2=O)cc1 (stereo unspecified) , report its GI50.
Completion: > 100 µM (inactive)

Prompt: Using the record for O=C(NNC(=O)c1cc2ccccc2[nH]1)c1cc2ccccc2[nH]1 , report its GI50.
Completion: > 100 µM (inactive)

Prompt: Using the record for COc1ccc(CCC(=O)OC(C)[C@H](NC(=O)[C@@H](CC(C)C)N(C)C(=O)[C@@H]2CCCN2C(=O)C(C)O)C(=O)OCc2ccccc2)cc1 (stereo partly specified) (H-[ξLac]P[dNMeL][Thr(3ξ)](Propanoyl(3-(4-MeO-Ph)))-OBn) , report its GI50.
Completion: 28.7 µM (inactive)

Prompt: Using the record for Nc1ccccc1SCc1csc(-c2ccc(Cl)cc2)n1 , report its GI50.
Completion: 12.7 µM (inactive)

Where do the numbers come from? From ChEMBL document CHEMBL1201862.
